System: MS2 coat protein
Assay: apparent KD of MS2 coat protein; higher = weaker reporter binding
Details: Eterna round: R107; input ligand: theophylline 2 mM
property.measured: apparent KD of MS2 coat protein (nM)
Just the number in nM, nothing appended.

Solved cases below.
GGACUAACCAGAAGGAGCGACACAGCAGAAACUGCAAAUCCUCCGCACGAGGAUCACCCGUGUCAGGUAGGUCGCUGGUUAGUCG [ArgBX 28]	71.6
AGAAUGUAAUAUGGCAAAGUUAUAACCGAAGGAGCGCCGAAUAAGGCAGGUAGGUCGCGGAAACAUGAGGAUCACCCAUGUCCAU [Arginine A Same State; Euphoria Solution 3]	14.4
CAAAAUAUCGGAAGGAGCGCGGGUAGGCGGGUUGGAUCACAUGAGGAUCACCCAUGUAAAUCGCAGGUAGGUCGCCGAUAACGCG [XArg-B27]	37.9
UGUAUGUGAUCUGAUACCAGCUAGCGGAAACGCAAAAGCUUGAGGAUCACCCAAGUGGAAAGCCCUUGGCAGCAGAUCGCAUACU [Denovo 1 #StaticStem #AlternativeMS2]	9.89

Can you look up the measured apparent KD of MS2 coat protein of CAGGCUAGGACGGCCGCCACUGUGGCUACGGUACAUGAGGAUCACCCAUGUUUGUGGUUGAUCUACAGGACCGGGUCCUGACACG [Letisoonri] for me?
278

Check ACGUAUGUCAGAAGGAGCGUCAAUAACAUGAGGAUCACCCAUGUAUUACAUAGGUAUAAUAGACAGGUAGGUCGCUGAAUUCGAA [JR_SSArginiB_Sub022] too.
31.2
